Origin of values: patent US20110152229A1

parameter: melting point

[ask] Check the records and state melting point for C=C(C)[C@@H]1CC[C@]2(C(=O)On3nnc4ccccc43)CC[C@]3(C)[C@H](CC[C@@H]4[C@@]5(C)CC[C@H](OC(=O)C(C)(C)CC(=O)O)C(C)(C)[C@@H]5CC[C@]43C)[C@@H]12
[reply] 151 to 154 °C

[ask] Supply recorded melting point for C=C(C)[C@@H]1CC[C@]2(C(=O)NCCCCCNC(C)=O)CC[C@]3(C)[C@H](CC[C@@H]4[C@@]5(C)CC[C@H](OC(=O)CC(C)(C)C(=O)O)C(C)(C)[C@@H]5CC[C@]43C)[C@@H]12 here.
[reply] 137 °C (dec.)

[ask] # return recorded melting point for input C=C(C)[C@@H]1CC[C@]2(C(=O)NCCCCCCCNC(C)=O)CC[C@]3(C)[C@H](CC[C@@H]4[C@@]5(C)CC[C@H](OC(=O)CC(C)(C)C(=O)O)C(C)(C)[C@@H]5CC[C@]43C)[C@@H]12
[reply] 117 to 120 °C

[ask] Consider the compound C=C(C)[C@@H]1CC[C@]2(C(=O)NCCCCCCNC(C)=O)CC[C@]3(C)[C@H](CC[C@@H]4[C@@]5(C)CC[C@H](OC(=O)CC(C)(C)C(=O)O)C(C)(C)[C@@H]5CC[C@]43C)[C@@H]12 . State its measured melting point.
[reply] 137 °C (dec.)

[ask] Given the compound C=C(C)[C@@H]1CC[C@]2(C(=O)NCCCCCCCCCNC(C)=O)CC[C@]3(C)[C@H](CC[C@@H]4[C@@]5(C)CC[C@H](OC(=O)CC(C)(C)C(=O)O)C(C)(C)[C@@H]5CC[C@]43C)[C@@H]12 , write its reported melting point.
[reply] 120 to 122 °C

[ask] Identify measured melting point associated with C=C(C)[C@@H]1CC[C@]2(C(=O)NCCCCCCCCNC(C)=O)CC[C@]3(C)[C@H](CC[C@@H]4[C@@]5(C)CC[C@H](OC(=O)CC(C)(C)C(=O)O)C(C)(C)[C@@H]5CC[C@]43C)[C@@H]12
[reply] 113 to 115 °C
